test system: triple-negative breast adenocarcinoma MDA-MB-231; assay: MTT cytotoxicity assay, 72 h; assay type: cell-based, human; conditions: Homo sapiens, MDA-MB-231, 72 h, read-out: IC50 MDA-MB-231
measured-metric: pIC50
Scale: negative log10 of molar concentration, which is what pIC50 denotes.

Previously resolved entries follow.
O=C1c2ccc(O)cc2O[C@H](c2ccc(O)c(O)c2)[C@H]1O    3.75
O=C1/C(=C/c2ccc(O)c(O)c2)Oc2cc(O)ccc21    4.26
O=C(/C=C/c1ccc(O)c(O)c1)c1ccc(O)cc1O    4.65

Item: O=c1c(O)c(-c2ccc(O)c(O)c2)oc2cc(O)ccc12 | pIC50: 4.35

Item: O=C1c2c(O)cc(O)cc2OC(c2ccc(O)c(O)c2)C1O (stereo not drawn) | pIC50: 3.76

Item: O=C1C[C@@H](c2ccc(O)c(O)c2)Oc2cc(O)cc(O)c21 | pIC50: 4.29

* * *

test system: triple-negative breast adenocarcinoma MDA-MB-231; assay: MTT cytotoxicity assay, 72 h; format: cell-based, human; conditions: from average IC50 values
measured-metric: Selectivity index IC50 for HaCaT/IC50 for MDA-MB-231
Write the number on its own, no unit after it.

Previously resolved entries follow.
O=C1c2c(O)cc(O)cc2OC(c2ccc(O)c(O)c2)C1O (centres unmarked)    2.25
O=C1/C(=C/c2ccc(O)c(O)c2)Oc2cc(O)ccc21    2.31
O=C(/C=C/c1ccc(O)c(O)c1)c1ccc(O)cc1O    1.63
O=C1C[C@@H](c2ccc(O)c(O)c2)Oc2cc(O)cc(O)c21    3.35

--- query ---
Item: O=c1c(O)c(-c2ccc(O)c(O)c2)oc2cc(O)ccc12 | Selectivity index IC50 for HaCaT/IC50 for MDA-MB-231: 1.76

* * *

system: cervical adenocarcinoma HeLa; assay: MTT cytotoxicity assay, 72 h; assay type: cell-based, human; settings: from average IC50 values
measured-metric: Selectivity index IC50 for MRC-5/IC50 for HeLa
Write the number on its own, no unit after it.

O=C1C[C@@H](c2ccc(O)c(O)c2)Oc2cc(O)cc(O)c21    1.05

Selectivity index IC50 for MRC-5/IC50 for HeLa on cervical adenocarcinoma HeLa for O=C1/C(=C/c2ccc(O)c(O)c2)Oc2cc(O)ccc21 is 1.96

Selectivity index IC50 for MRC-5/IC50 for HeLa on cervical adenocarcinoma HeLa for O=C(/C=C/c1ccc(O)c(O)c1)c1ccc(O)cc1O is 9.91

* * *

test system: malignant melanoma A375; assay: MTT cytotoxicity assay, 72 h; format: cell-based, human; settings: from average IC50 values
# Lookup of reported Selectivity index IC50 for MRC-5/IC50 for A375 keyed by entry
Write the number on its own, no unit after it.

O=C1/C(=C/c2ccc(O)c(O)c2)Oc2cc(O)ccc21 [sulfuretin]    2.24

Item: O=C1C[C@@H](c2ccc(O)c(O)c2)Oc2cc(O)cc(O)c21 [eriodictyol] | Selectivity index IC50 for MRC-5/IC50 for A375: 1.12

Item: O=C(/C=C/c1ccc(O)c(O)c1)c1ccc(O)cc1O [butein] | Selectivity index IC50 for MRC-5/IC50 for A375: 2.19

* * *

tested on: prostate adenocarcinoma PC-3; experiment: MTT cytotoxicity assay, 72 h; assay type: cell-based, human; settings: from average IC50 values
Criterion: Selectivity index IC50 for HaCaT/IC50 for PC-3 strictly less than 0.8. Met: Satisfied. Not met: Not satisfied.

Q: Would you kindly verify if Selectivity index IC50 for HaCaT/IC50 for PC-3 of O=c1c(O)c(-c2ccc(O)c(O)c2)oc2cc(O)ccc12 [fisetin] is strictly less than 0.8?
Ans: Satisfied

Q: Would you kindly verify if Selectivity index IC50 for HaCaT/IC50 for PC-3 of O=C1/C(=C/c2ccc(O)c(O)c2)Oc2cc(O)ccc21 [sulfuretin] is strictly less than 0.8?
Ans: Not satisfied

Q: Would you kindly verify if Selectivity index IC50 for HaCaT/IC50 for PC-3 of O=C(/C=C/c1ccc(O)c(O)c1)c1ccc(O)cc1O [butein] is strictly less than 0.8?
Ans: Satisfied

Q: Would you kindly verify if Selectivity index IC50 for HaCaT/IC50 for PC-3 of O=C1C[C@@H](c2ccc(O)c(O)c2)Oc2cc(O)cc(O)c21 [eriodictyol] is strictly less than 0.8?
Ans: Satisfied

Q: Would you kindly verify if Selectivity index IC50 for HaCaT/IC50 for PC-3 of O=C1c2c(O)cc(O)cc2OC(c2ccc(O)c(O)c2)C1O (centres unmarked) [taxifolin] is strictly less than 0.8?
Ans: Not satisfied

* * *

tested on: acute promyelocytic leukemia HL-60 cells; test: MTT cytotoxicity assay, 72 h; assay type: cell-based, human; conditions: Homo sapiens, HL-60, 72 h, read-out: IC50 HL-60
pIC50: −log10 of the molar value.
Response key: yes means pIC50 >= 4; no means pIC50 < 4.

Solved entries:
O=c1c(O)c(-c2ccc(O)c(O)c2)oc2cc(O)ccc12    yes
O=C(/C=C/c1ccc(O)c(O)c1)c1ccc(O)cc1O    yes
O=C1c2ccc(O)cc2O[C@H](c2ccc(O)c(O)c2)[C@H]1O    no
O=C1c2c(O)cc(O)cc2OC(c2ccc(O)c(O)c2)C1O (stereo not drawn)    no

Q: Confirm if pIC50 reported for the compound O=C1/C(=C/c2ccc(O)c(O)c2)Oc2cc(O)ccc21 is 4 or above.
Ans: yes

* * *

test system: prostate adenocarcinoma PC-3; assay: MTT cytotoxicity assay, 72 h; assay type: cell-based, human; conditions: Homo sapiens, 72 h, read-out: IC50 PC-3
measured-metric: IC50 (µM)
Provide only the numeric value, understood in µM.

Previously resolved entries follow.
O=C(/C=C/c1ccc(O)c(O)c1)c1ccc(O)cc1O    48.6
O=C1c2c(O)cc(O)cc2OC(c2ccc(O)c(O)c2)C1O (stereo not drawn)    391
O=c1c(O)c(-c2ccc(O)c(O)c2)oc2cc(O)ccc12    160
O=C1/C(=C/c2ccc(O)c(O)c2)Oc2cc(O)ccc21    116

--- query ---
IC50 on prostate adenocarcinoma PC-3 for O=C1C[C@@H](c2ccc(O)c(O)c2)Oc2cc(O)cc(O)c21 is 284

* * *

tested on: cervical adenocarcinoma HeLa; experiment: MTT cytotoxicity assay, 72 h; format: cell-based, human; settings: from average IC50 values
measured-metric: Selectivity index IC50 for HaCaT/IC50 for HeLa
Write the number on its own, no unit after it.

Previously resolved entries follow.
O=c1c(O)c(-c2ccc(O)c(O)c2)oc2cc(O)ccc12    1.31
O=C1C[C@@H](c2ccc(O)c(O)c2)Oc2cc(O)cc(O)c21    1.17
O=C(/C=C/c1ccc(O)c(O)c1)c1ccc(O)cc1O    4.21

Item: O=C1c2c(O)cc(O)cc2OC(c2ccc(O)c(O)c2)C1O (centres unmarked) | Selectivity index IC50 for HaCaT/IC50 for HeLa: 2.01

Item: O=C1/C(=C/c2ccc(O)c(O)c2)Oc2cc(O)ccc21 | Selectivity index IC50 for HaCaT/IC50 for HeLa: 1.60

* * *

system: malignant melanoma A375; experiment: MTT cytotoxicity assay, 72 h; assay type: cell-based, human; settings: Homo sapiens, A-375, 72 h, read-out: IC50 A375
measured-metric: IC50 (µM)
Provide only the numeric value, understood in µM.

Previously resolved entries follow.
O=c1c(O)c(-c2ccc(O)c(O)c2)oc2cc(O)ccc12 [fisetin]    161
O=C1C[C@@H](c2ccc(O)c(O)c2)Oc2cc(O)cc(O)c21 [eriodictyol]    138
O=C1c2c(O)cc(O)cc2OC(c2ccc(O)c(O)c2)C1O (stereo not drawn) [taxifolin]    191

Item: O=C(/C=C/c1ccc(O)c(O)c1)c1ccc(O)cc1O [butein] | IC50: 39.1

Item: O=C1c2ccc(O)cc2O[C@H](c2ccc(O)c(O)c2)[C@H]1O [fustin] | IC50: 187

Item: O=C1/C(=C/c2ccc(O)c(O)c2)Oc2cc(O)ccc21 [sulfuretin] | IC50: 69

* * *

tested on: keratinocytes HaCaT; assay: MTT cytotoxicity assay, 72 h, normal cells; assay type: cell-based, human; conditions: Homo sapiens, HaCaT, read-out: IC50 HaCaT
Criterion: IC50 strictly less than 80 µM. Met: Yes. Not met: No.

Solved entries:
O=C1/C(=C/c2ccc(O)c(O)c2)Oc2cc(O)ccc21    No
O=C1c2ccc(O)cc2O[C@H](c2ccc(O)c(O)c2)[C@H]1O    No
O=C1C[C@@H](c2ccc(O)c(O)c2)Oc2cc(O)cc(O)c21    No
O=C1c2c(O)cc(O)cc2OC(c2ccc(O)c(O)c2)C1O (stereo not drawn)    No

Okay, next one:
Q: Would you kindly verify if IC50 of O=C(/C=C/c1ccc(O)c(O)c1)c1ccc(O)cc1O is strictly less than 80 µM?
Ans: Yes

Ref: paper PMC11792361
